Tested on: 313798-341-R-J2-PDC spheroids, viability;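 also: spheroids exposed to compounds for seven days; 100% = DMSO vehicle control viability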
Experiment: Anticancer human tumor 313798-341-R-J2-PDC patient-derived cervical squamous cell carcinoma cell line growth inhibition [PI3K]
Settings: second compound 0.1 µM; first compound 0.3 µM; hits give low values; spheroids with HUVEC and MSC
Measured viability, T/C, listed per entry for reference.
readout-kind: viability, T/C

INSERT INTO results (compound, system_name, result) VALUES
  ('Cn1cnc2c(F)c(Nc3ccc(Br)cc3Cl)c(C(=O)NOCCO)cc21 + CC(Nc1ncnc2nc[nH]c12)c1cc2cccc(Cl)c2c(=O)n1-c1ccccc1', '313798-341-R-J2-PDC spheroids, viability', '95.2%'),
  ('Cn1cnc2c(F)c(Nc3ccc(Br)cc3Cl)c(C(=O)NOCCO)cc21 + Cc1nc(NC(=O)N2CCCC2C(N)=O)sc1-c1ccnc(C(C)(C)C(F)(F)F)c1', '313798-341-R-J2-PDC spheroids, viability', '107%'),
  ('Cn1cnc2c(F)c(Nc3ccc(Br)cc3Cl)c(C(=O)NOCCO)cc21 + COc1c(OCCCN2CCOCC2)ccc2c3n(c(=NC(=O)c4cnc(N)nc4)nc12)CCN3', '313798-341-R-J2-PDC spheroids, viability', '31.6%'),
  ('Cn1cnc2c(F)c(Nc3ccc(Br)cc3Cl)c(C(=O)NOCCO)cc21 + CC(Nc1ccc2c(c1)OCCn1cc(N3C(=O)OCC3C(F)F)nc1-2)C(N)=O', '313798-341-R-J2-PDC spheroids, viability', '46%');
